Protocol Description: Cytotoxicity: K562 cell growth inhibition (Cell Counting Kit-8, WST-8)
Format: cell-based
Measurement Context: human, K562 cells, sample of 99% ee
Result Type: pIC50
pIC50 here is simply -log10 of the concentration when that concentration is written in mol/L.

So, CCC[C@@H]1CC(=O)C[C@@]2(O1)C(=O)Nc1ccccc12 ? Its pIC50 was 3.89

---

Protocol Description: Cytotoxicity: K562 cell growth inhibition (Cell Counting Kit-8, WST-8)
Type: cell-based
Measurement Context: human, K562 cells, sample with no ee given
Listed compounds paired with reported IC50
Give a bare numeral; the unit µM is implied.

Compound: CCC[C@@H]1CC(=O)C[C@@]2(O1)C(=O)Nc1ccccc12
Display Unit: µM
IC50: 125
--
Compound: CCC[C@@H]1CC(=O)C[C@@]2(O1)C(=O)Nc1cccc(Cl)c12
Display Unit: µM
IC50: 15
--
Compound: CCC[C@@H]1CC(=O)C[C@@]2(O1)C(=O)Nc1ccc(Br)cc12
Display Unit: µM
IC50: 20

Query compound follows.
So, CCC[C@@H]1CC(=O)C[C@@]2(O1)C(=O)Nc1cc(Cl)ccc12 ? Its IC50 was 21

---

Protocol Description: Cytotoxicity: K562 cell growth inhibition (Cell Counting Kit-8, WST-8)
Type: cell-based
Measurement Context: human, K562 cells, sample of 82% ee
Result Type: pIC50
pIC50 here is simply -log10 of the concentration when that concentration is written in mol/L.

So, CCC[C@@H]1CC(=O)C[C@@]2(O1)C(=O)Nc1cccc(Br)c12 ? Its pIC50 was 4.80

---

Listed molecules paired with reported melting point

As a guide, the following entries are already answered.
Molecule: CCC[C@@H]1CC(=O)C[C@@]2(O1)C(=O)Nc1ccccc12
melting point: 118 to 120 °C

Molecule: O=C1C[C@@H](CCN2C(=O)c3ccccc3C2=O)O[C@]2(C1)C(=O)Nc1ccccc12
melting point: 199 to 201 °C

Molecule: C=CC[C@@]1(O)C[C@@H](CCC)O[C@]2(C1)C(=O)Nc1ccccc12
melting point: 189 to 191 °C

Molecule: CCC[C@@H]1C/C(=N/NS(=O)(=O)c2ccc(C)cc2)C[C@@]2(O1)C(=O)Nc1ccccc12 (stereo in doubt)
melting point: 197 to 199 °C

Query molecule follows.
So, CCC[C@@H]1C[C@@H](O)C[C@@]2(O1)C(=O)Nc1ccccc12 ? Its melting point was 169 to 171 °C

---

Protocol Description: Cytotoxicity: K562 cell growth inhibition (Cell Counting Kit-8, WST-8)
Assay type: cell-based
Measurement Context: human, K562 cells, sample of 91% ee
Result Type: pIC50
pIC50 here is simply -log10 of the concentration when that concentration is written in mol/L.

So, O=C1C[C@@H](CCN2C(=O)c3ccccc3C2=O)O[C@]2(C1)C(=O)Nc1ccccc12 ? Its pIC50 was 3.95

---

Protocol Description: Cytotoxicity: K562 cell growth inhibition (Cell Counting Kit-8, WST-8)
Assay type: cell-based
Measurement Context: human, K562 cells, sample of 92% ee
pIC50: −log10 of the molar value.
Result Type: pIC50

So, CCC[C@@H]1C[C@@H](O)C[C@@]2(O1)C(=O)Nc1ccccc12 ? Its pIC50 was < 3.61
